System: SARS-CoV-2 gRNA
Format: binding
Details: […]; LC-MS/MS; Probe I sample (first 199 lines of Table 2)
ENDPOINT: target (unweighted spectral count of the protein in the RNP capture)

Past entries and their recorded results:
>  <MOLECULE>
PURA (protein, UniProt Q00577 2-322, looked up) Transcriptional activator …: ADRDSGSEQGGAALGSGGSLGHPGSGSGSGGGGGGGGGGGGSGGGGGGAPGGLQHETQELASKRVDIQNKRFYLDVKQNAKGRFLKIAEVGAGGNKSRLTLSMSVAVEFRDYLGDFIEHYAQLGPSQPPDLAQAQDEPRRALKSEFLVRENRKYYMDLKENQRGRFLRIRQTVNRGPGLGSTQGQTIALPAQGLIEFRDALAKLIDDYGVEEEPAELPEGTSLTVDNKRFFFDVGSNKYGVFMRVSEVKPTYRNSITVPYKVWAKFGHTFCKYSEEMKKIQEKQREKRAACEQLHQQQQQQQEETAAATLLLQGEEEGEED

>  <RESULT>
15

$$$$
>  <MOLECULE>
FBL: host protein, UniProt P22087 (protein, UniProt P22087 1-321, looked up) rRNA 2'-O-methyltransferase …: MKPGFSPRGGGFGGRGGFGDRGGRGGRGGFGGGRGRGGGFRGRGRGGGGGGGGGGGGGRGGGGFHSGGNRGRGRGGKRGNQSGKNVMVEPHRHEGVFICRGKEDALVTKNLVPGESVYGEKRVSISEGDDKIEYRAWNPFRSKLAAAILGGVDQIHIKPGAKVLYLGAASGTTVSHVSDIVGPDGLVYAVEFSHRSGRDLINLAKKRTNIIPVIEDARHPHKYRMLIAMVDVIFADVAQPDQTRIVALNAHTFLRNGGHFVISIKANCIDSTASAEAVFASEVKKMQQENMKPQEQLTLEPYERDHAVVVGVYRPPPKVKN

>  <RESULT>
5

$$$$

Alright, here's another molecule for you.
Bench note: what target (unweighted spectral count of the protein in the RNP capture) did SSBP1 (protein, UniProt Q04837 17-148, looked up) Single-stranded DNA-binding …: ESETTTSLVLERSLNRVHLLGRVGQDPVLRQVEGKNPVTIFSLATNEMWRSGDSEVYQLGDVSQKTTWHRISVFRPGLRDVAYQYVKKGSRIYLEGKIDYGEYMDKNNVRRQATTIIADNIIFLSDQTKEKE show?
14

These measurements were taken from patent US20230407373A1.
